Test: Cytotoxicity against human HepG2(2.2.15) cells
Assay type: cell-based
property measured: CC50

In the examples that follow, each entry is paired with its recorded CC50.
CCC(=O)O[C@@H](C[C@@H](C)C1=C2C[C@H](OC(=O)CC)[C@H]3[C@@]4(C)CCC(=O)C(C)(C)[C@@H]4CC[C@]3(C)[C@@]2(C)CC1)[C@@H](OC(=O)CC)C(C)(C)OC(C)=O	> 1700 µM
CCCC(=O)O[C@@H](C[C@@H](C)[C@]12CC[C@@]3(C)[C@@]1(C[C@H](OC(=O)CCC)[C@H]1[C@@]4(C)CCC(=O)C(C)(C)[C@@H]4CC[C@@]13C)O2)[C@@H](OC(=O)CCC)C(C)(C)OC(=O)CCC	> 1900 µM

// recorded CC50 for C[C@H](C[C@H](OC(=O)COc1ccccc1)[C@@H](OC(=O)COc1ccccc1)C(C)(C)OC(=O)COc1ccccc1)C1=C2C[C@H](OC(=O)COc3ccccc3)[C@H]3[C@@]4(C)CCC(=O)C(C)(C)[C@@H]4CC[C@]3(C)[C@@]2(C)CC1 : > 1400 µM

// recorded CC50 for C[C@H](C[C@H](OC(=O)[C@H]1CCC(=O)O1)[C@@H](OC(=O)[C@H]1CCC(=O)O1)C(C)(C)OC(=O)[C@@H]1CCC(=O)O1)C1=C2C[C@H](OC(=O)[C@@H]3CCC(=O)O3)[C@H]3[C@@]4(C)CCC(=O)C(C)(C)[C@@H]4CC[C@]3(C)[C@@]2(C)CC1 : > 1600 µM

// recorded CC50 for CCCC(=O)O[C@@H](C[C@@H](C)C1=C2C[C@H](OC(=O)CCC)[C@H]3[C@@]4(C)CCC(=O)C(C)(C)[C@@H]4CC[C@]3(C)[C@@]2(C)CC1)[C@@H](OC(=O)CCC)C(C)(C)OC(=O)CCC : > 1800 µM

// recorded CC50 for C[C@H](C[C@H](OC(=O)COc1cc(Cl)c(Cl)cc1Cl)[C@@H](OC(=O)COc1cc(Cl)c(Cl)cc1Cl)C(C)(C)OC(=O)COc1cc(Cl)c(Cl)cc1Cl)C1=C2C[C@H](OC(=O)COc3cc(Cl)c(Cl)cc3Cl)[C@H]3[C@@]4(C)CCC(=O)C(C)(C)[C@@H]4CC[C@]3(C)[C@@]2(C)CC1 : > 1200 µM

// recorded CC50 for CCCCC(=O)O[C@@H](C[C@@H](C)C1=C2C[C@H](OC(=O)CCCC)[C@H]3[C@@]4(C)CCC(=O)C(C)(C)[C@@H]4CC[C@]3(C)[C@@]2(C)CC1)[C@@H](OC(=O)CCCC)C(C)(C)OC(=O)CCCC : > 1400 µM

// recorded CC50 for C[C@H](C[C@H](OC(=O)c1ccccc1I)[C@@H](OC(=O)c1ccccc1I)C(C)(C)OC(=O)c1ccccc1I)C1=C2C[C@H](OC(=O)c3ccccc3I)[C@H]3[C@@]4(C)CCC(=O)C(C)(C)[C@@H]4CC[C@]3(C)[C@@]2(C)CC1 : > 1400 µM
